Provenance of the data: ChEMBL document CHEMBL3045904

System: Staphylococcus aureus
EXPERIMENT: Antibacterial activity against Staphylococcus aureus after 24 hr by two-fold serial dilution method
Format: functional
ASSAY READOUT: MIC (µg/mL)
Numeric answer only, unit µg/mL assumed.

The examples below pair each entry with its known result.
Oc1ccccc1/C=N/N=C1\C[C@@H](c2ccccc2)S[C@@H](c2ccccc2)C1 (relative stereo)	25
O=C1C[C@@H](c2ccccc2)S[C@@H](c2ccccc2)C1	100
N/N=C1\C[C@@H](c2ccccc2)S[C@@H](c2ccccc2)C1 (relative stereo)	100
O/N=C1\C[C@@H](c2ccccc2)S[C@@H](c2ccccc2)C1	100
c1ccc([C@@H]2C/C(=N\N=C3/C[C@@H](c4ccccc4)S[C@@H](c4ccccc4)C3)C[C@H](c3ccccc3)S2)cc1	25

Q: Quote MIC with test system Staphylococcus aureus for `CN[C@@H]1[C@H](O[C@H]2[C@H](O[C@H]3[C@H](O)[C@@H](O)[C@H](N=C(N)N)[C@@H](O)[C@@H]3N=C(N)N)O[C@@H](C)[C@]2(O)C=O)O[C@@H](CO)[C@H](O)[C@H]1O`
Result: 25

Q: Give MIC only, for COc1ccc(/C=N/N=C2\C[C@@H](c3ccccc3)S[C@@H](c3ccccc3)C2)cc1 (relative stereo) , using Staphylococcus aureus data.
Result: 25

Q: For Staphylococcus aureus, give MIC of the listed compound: O=[N+]([O-])c1ccccc1/C=N/N=C1\C[C@@H](c2ccccc2)S[C@@H](c2ccccc2)C1 (relative stereo)
Result: 25

====

Tested on: Aspergillus niger
EXPERIMENT: Antifungal activity against Aspergillus niger after 72 to 96 hr by two-fold serial dilution method
Assay type: functional
Calls of active or inactive are those of the source. The rule behind the calls is not given here.
ASSAY READOUT: MIC

C[C@@H]1[C@H](O)[C@@H](C)/C=C/C=C/C=C/C=C/C=C/C=C/C=C/[C@H](O[C@@H]2O[C@H](C)[C@@H](O)[C@H](N)[C@@H]2O)C[C@@H]2O[C@](O)(C[C@@H](O)C[C@@H](O)[C@H](O)CC[C@@H](O)C[C@@H](O)CC(=O)O[C@H]1C)C[C@H](O)[C@H]2C(=O)O	50 µg/mL
O=C1C[C@@H](c2ccccc2)S[C@@H](c2ccccc2)C1	inactive
c1ccc([C@@H]2C/C(=N\N=C3/C[C@@H](c4ccccc4)S[C@@H](c4ccccc4)C3)C[C@H](c3ccccc3)S2)cc1	50 µg/mL
O=[N+]([O-])c1ccccc1/C=N/N=C1\C[C@@H](c2ccccc2)S[C@@H](c2ccccc2)C1 (relative stereo)	100 µg/mL
Oc1ccccc1/C=N/N=C1\C[C@@H](c2ccccc2)S[C@@H](c2ccccc2)C1 (relative stereo)	25 µg/mL
N/N=C1\C[C@@H](c2ccccc2)S[C@@H](c2ccccc2)C1 (relative stereo)	100 µg/mL
COc1ccc(/C=N/N=C2\C[C@@H](c3ccccc3)S[C@@H](c3ccccc3)C2)cc1 (relative stereo)	50 µg/mL

Pending molecule:
Q: Return MIC for the following molecule: `O/N=C1\C[C@@H](c2ccccc2)S[C@@H](c2ccccc2)C1`
Result: inactive

====

Test system: Aspergillus flavus
EXPERIMENT: Antifungal activity against Aspergillus flavus after 72 to 96 hr by two-fold serial dilution method
Type: functional
Here, each record is paired with measured MIC data.
Hi! Could you send only the number? It should be in µg/mL, unit omitted.

Oc1ccccc1/C=N/N=C1\C[C@@H](c2ccccc2)S[C@@H](c2ccccc2)C1 (relative stereo)	50

API: the following record is the query input.
Q: Dear colleague, please send me the reported MIC for N/N=C1\C[C@@H](c2ccccc2)S[C@@H](c2ccccc2)C1 (relative stereo) when you can.
Result: 100

====

Property: MIC; scope: individual compounds
Test system: Aspergillus flavus
EXPERIMENT: Antifungal activity against Aspergillus flavus after 72 to 96 hr by two-fold serial dilution method
Type: functional
Entry rule: numbers only, all in µg/mL.

Recorded MIC, per entry:
COc1ccc(/C=N/N=C2\C[C@@H](c3ccccc3)S[C@@H](c3ccccc3)C2)cc1 (relative stereo)	100
O/N=C1\C[C@@H](c2ccccc2)S[C@@H](c2ccccc2)C1	100
O=[N+]([O-])c1ccccc1/C=N/N=C1\C[C@@H](c2ccccc2)S[C@@H](c2ccccc2)C1 (relative stereo)	100
c1ccc([C@@H]2C/C(=N\N=C3/C[C@@H](c4ccccc4)S[C@@H](c4ccccc4)C3)C[C@H](c3ccccc3)S2)cc1	100
O=C1C[C@@H](c2ccccc2)S[C@@H](c2ccccc2)C1	100

Q: Supply measured MIC of `C[C@@H]1[C@H](O)[C@@H](C)/C=C/C=C/C=C/C=C/C=C/C=C/C=C/[C@H](O[C@@H]2O[C@H](C)[C@@H](O)[C@H](N)[C@@H]2O)C[C@@H]2O[C@](O)(C[C@@H](O)C[C@@H](O)[C@H](O)CC[C@@H](O)C[C@@H](O)CC(=O)O[C@H]1C)C[C@H](O)[C@H]2C(=O)O` in your reply.
Result: 50
